B1: CDC25A (parent)
chain: KPIVPTDGKRVIVVFHCEFSSERG

# Variants of: B1
# ASSAY_PROCEDURE: protein stability index of a GFP-peptide fusion (GPS, HEK-293T) (PSI 1-6); higher = more stable;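 also: lentivirally expressed fusions sorted by FACS into six bins by GFP to DsRed ratio, PSI derived from sequencing read proportions per bin multiplied by bin number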
# CONDITION_SUMMARY: c terminus: a fixed tail appended
protein stability index class ranges: lowest: < 2; middle: ≥ 2 and < 3; highest: ≥ 3

{"columns": ["MUTANT_NAME", "LABEL_CLASS"],
 "data": [
  ["R23V", "highest"],
  ["V11Q", "middle"],
  ["S21C", "highest"],
  ["I3F", "middle"],
  ["K9S", "middle"],
  ["C17S", "lowest"],
  ["R23E", "middle"],
  ["T6R", "middle"],
  ["G8Q", "lowest"],
  ["H16C", "middle"],
  ["F15L", "highest"],
  ["V14G", "middle"],
  ["F19S", "middle"],
  ["S21K", "lowest"],
  ["V11C", "lowest"],
  ["G8T", "middle"],
  ["H16D", "middle"],
  ["G24R", "highest"],
  ["H16I", "middle"],
  ["I12P", "highest"]
]}

// provenance: the supplement of paper PMC10567573
